Where do these numbers come from? They come from ChEMBL document CHEMBL1153492.

Would you mind telling me the reported selectivity ratio of each entry?
# experiment_description: Selectivity index, CC50 for human MT4 cells to EC50 for HIV1 3B
# Type: toxicity, cell-based
# test_parameters: read-out: Ratio CC50/EC50

Exam item: Item "Cc1cc(C)cc(S(=O)(=O)N2CC(=O)Nc3ccc(Cl)cc32)c1" has what recorded selectivity ratio?
Marked response: 782

Exam item: Item "O=C(CCl)Nc1ccc(Cl)cc1NS(=O)(=O)c1cc(Cl)cc(Cl)c1" has what recorded selectivity ratio?
Marked response: > 32

Exam item: Item "O=C1CN(S(=O)(=O)c2c(Cl)cccc2Cl)c2cc(Cl)ccc2N1" has what recorded selectivity ratio?
Marked response: > 293

Exam item: Item "O=C1CN(S(=O)(=O)c2cc(Cl)cc(Cl)c2)c2cc(Cl)ccc2N1" has what recorded selectivity ratio?
Marked response: > 8
